Origin of values: paper PMC6318249

tgt: p50 S65D (Mus musculus, UniProt P25799 39-364, S63D)
Sequence (P25799 39-364 S63D): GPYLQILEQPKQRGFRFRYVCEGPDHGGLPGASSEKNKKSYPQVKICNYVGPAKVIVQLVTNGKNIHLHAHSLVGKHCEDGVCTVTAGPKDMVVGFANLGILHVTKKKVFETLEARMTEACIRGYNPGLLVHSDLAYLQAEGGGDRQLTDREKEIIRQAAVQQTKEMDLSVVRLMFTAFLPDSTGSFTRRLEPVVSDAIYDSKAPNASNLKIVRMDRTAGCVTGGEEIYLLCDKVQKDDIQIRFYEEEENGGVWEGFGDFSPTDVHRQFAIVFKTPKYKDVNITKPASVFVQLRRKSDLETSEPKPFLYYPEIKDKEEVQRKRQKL
testMethodNotes: native MS titration; KD: 3 uM p50 with 0.2-6 uM DNA in 300 mM NH4OAc, 5 min, room temperature, 10 uL, pH not stated; native nESI-(IM-)MS
appliedConditions: protein: recombinant; tags: His6-MBP removed by 3C protease; chain copies: 2; blunt; strand is self-complementary
experimentalReadout: Kd (nM)
One number for each entry, in nM.

Kd reading for kB DNA oligomer (KD determination) (dsDNA) DNA 1: CCCCCGGGGGCCCCCGGGGG DNA 2: CCCCCGGGGGCCCCCGGGGG : 140
